# target desc: A*2402 (Homo sapiens, UniProt P04439, D101N/D140Y/D185E/E176V/E190D/F33S/G103R/G107R/I119L/I121M/I306V/K335N/L105A/L180Q/L300P/N151K/N90K/Q86E/Q94H/R106L/R138H/R89G/T104I/T345S/V100E/W191G/Y123F)
# assay notes: iTopia Epitope Discovery System, ELISA-like peptide binding to recombinant HLA
# assay context: relative percentage of peptide bonds (FIG. 6); nonamer of VK3-20
measurement kind: Bond results, Class I HLA molecule A*2402
Respond with the number and no other words.

Worked examples, 5 sequences total:
primary sequence | recorded measurement
KPGQAPRLL [Peptide 40, nonamer derived from VK3-20 protein] | 7
RLEPEDFAV [Peptide 78, nonamer derived from VK3-20 protein] | 7
LLIYGASSR [Peptide 47, nonamer derived from VK3-20 protein] | 5
QQYGSSPRT [Peptide 90, nonamer derived from VK3-20 protein] | 6
RTFGQGTKV [Peptide 97, nonamer derived from VK3-20 protein] | 8

Proceeding to the next sequence to report its Bond results, Class I HLA molecule A*2402.
Read off the recorded Bond results, Class I HLA molecule A*2402 for LIYGASSRA [Peptide 48, nonamer derived from VK3-20 protein] 7

Entry source: patent US8512703B2
